tested-on: Human PD-L1/PD-1 (Homo sapiens, UniProt Q9NZQ7)
Construct: made in house; host or cells: HEK293T
Sequence (Q9NZQ7 with tags, fused parts or gaps): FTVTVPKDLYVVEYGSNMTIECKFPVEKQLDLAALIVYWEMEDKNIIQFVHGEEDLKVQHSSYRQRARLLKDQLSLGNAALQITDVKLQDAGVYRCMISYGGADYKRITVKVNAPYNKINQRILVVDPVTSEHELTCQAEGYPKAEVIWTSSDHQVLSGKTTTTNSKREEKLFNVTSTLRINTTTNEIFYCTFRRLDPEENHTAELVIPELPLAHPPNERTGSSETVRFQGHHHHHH
test-description: HTRF PD-1-Ig/PD-L1-His binding assay (human PD-L1)
measurement-conditions: read-out: HTRF IC50 value
Positions of bridges follow the written chain, without caps; N, C: chain ends. Non-standard residues stand in square brackets, D forms with d. Residues, ends and D or L forms follow the SMILES beside them. ξ: configuration not given here. Phe(2-Cl) = N[C@@H](Cc1ccccc1Cl)C(=O)O; NMeF = CN[C@@H](Cc1ccccc1)C(=O)O; dNMeNle = CCCC[C@@H](NC)C(=O)O; NMeNle = CCCC[C@H](NC)C(=O)O; Dab = NCC[C@H](N)C(=O)O; ξP = O=C(O)C1CCCN1; Sar = CNCC(=O)O
Below: a set of entries, each annotated with reported IC50.
endpoint-label: IC50 (nM)

{"columns": ["molecule", "tested-on", "test-value"],
 "data": [
  ["CCCC[C@H]1C(=O)N(C)[C@@H](CCCC)C(=O)N[C@@H](CCCN)C(=O)N[C@H](C(=O)NCC(N)=O)CSCC(=O)N[C@@H](Cc2ccc(O)cc2)C(=O)N2C[C@H](N)C[C@H]2C(=O)N[C@@H](CC(N)=O)C(=O)N2CCC[C@H]2C(=O)N[C@@H](Cc2cnc[nH]2)C(=O)N[C@@H](CC(C)C)C(=O)N2C[C@H](O)C[C@H]2C(=O)N[C@@H](Cc2c[nH]c3ccccc23)C(=O)N[C@@H](CO)C(=O)N[C@@H](Cc2c[nH]c3ccccc23)C(=O)N1C", "Human PD-L1/PD-1 (Homo sapiens, UniProt Q9NZQ7)", 6.74],
  ["CCCC[C@H]1C(=O)N(C)CC(=O)N[C@@H](CC(=O)O)C(=O)N[C@@H](C(C)C)C(=O)N[C@@H](Cc2ccccc2Cl)C(=O)N[C@@H](Cc2ccc(O)cc2)C(=O)N(C)CC(=O)N[C@@H](Cc2c[nH]c3ccccc23)C(=O)N[C@@H](Cc2ccc(O)cc2)C(=O)N[C@@H](CC(C)C)C(=O)N[C@H](C(=O)NCC(N)=O)CSCC(=O)N[C@@H](Cc2ccccc2)C(=O)N(C)[C@@H](Cc2ccccc2)C(=O)N1C [Example 3132] ({CH2CO}-F[NMeF][NMeNle][Sar]DV[Phe(2-Cl)]Y[Sar]WYLCG-NH2; thioether N-13)", "Human PD-L1/PD-1 (Homo sapiens, UniProt Q9NZQ7)", 2230],
  ["CCCC[C@@H]1C(=O)N(C)[C@H](CCCC)C(=O)N[C@@H](C)C(=O)N[C@@H](C(=O)NCC(N)=O)CSCC(=O)N[C@@H](Cc2ccc(O)cc2)C(=O)N2CCCC2C(=O)N[C@H](CC(=O)O)C(=O)N2CCC[C@H]2C(=O)N[C@H](Cc2c[nH]cn2)C(=O)N[C@@H](CCC(=O)O)C(=O)N2CCCC2C(=O)N[C@H](Cc2c[nH]c3ccccc23)C(=O)N[C@@H](CCN)C(=O)N[C@@H](Cc2c[nH]c3ccccc23)C(=O)N1C (stereo partly drawn) [Example 1215] ({CH2CO}-Y[ξP][dD]P[dH]E[ξP][dW][Dab]W[dNMeNle][dNMeNle]A[dC]G-NH2; thioether N-14)", "Human PD-L1/PD-1 (Homo sapiens, UniProt Q9NZQ7)", 50.9]
]}
